molecular target: HLA-B*45:06; experiment: IEDB peptide-MHC binding, purified MHC/competitive/fluorescence; filed as Kd, often an IC50 or EC50 that approximates it; bounds were set here for any values at or beyond the usual limits of such assays; details: source organism: Yersinia pestis Nepal516
pKd: −log10 of the molar value.

SEQUENCE INPUT | SYSTEM UNDER TEST | pKd
YMYDFILRF | HLA-B*45:06 | ≤ 5.30
VEMQLAVVI | HLA-B*45:06 | ≤ 5.30

###

molecular target: HLA-A*29:02; test: IEDB peptide-MHC binding, purified MHC/competitive/fluorescence; filed as Kd, often an IC50 or EC50 that approximates it; bounds were set here for any values at or beyond the usual limits of such assays; details: source organism: Bacillus anthracis str. A0488
pKd: −log10 of the molar value.

SEQUENCE INPUT | pKd
FVMPIFEQI | ≤ 5.30

Data credit: the Immune Epitope Database (IEDB)
